# Experiment: refractive index (Na D-line) (dimensionless)
# Assay Conditions: 298.15 K; 101.33 kPa; Liquid; Standard Abbe refractometry
Assay Metric: refractive index
Provide a numeric answer; units are not to be included.

GET /values?readout=refractive index&item= O=C1CCCCC1 [cyclohexanone]
1.4482

GET /values?readout=refractive index&item= ClC(Cl)Cl [trichloromethane]
1.4428

GET /values?readout=refractive index&item= ClCCCl [1,2-dichloroethane]
1.4421

GET /values?readout=refractive index&item= O=C1CCCC1 [cyclopentanone]
1.4347

----------
Exercise: state measured mass density for each of the compounds provided.
# Assay Conditions: 298.15 K; 101.33 kPa; Liquid
# output: bare number, implied unit kg/m3

GET /values?readout=mass density&item= ClCCCl
1250.9

GET /values?readout=mass density&item= ClC(Cl)Cl
1475.9

GET /values?readout=mass density&item= O=C1CCCC1
945.3

GET /values?readout=mass density&item= O=C1CCCCC1
943
